This document collects Ki values reported for AAK1 (Homo sapiens).
Report only the number, with the unit µM understood.

# COMPOUND, UNITS OF MEASURE, Ki
rows = [
    ("O=c1[nH]c2ccc(Nc3ccnc4ccc(Br)cc34)cc2[nH]1 [Compound 39]", "µM", 1.9),
    ("Brc1ccc2nccc(Nc3cccc4c3OCC4)c2c1 [Compound 18]", "µM", 3.5),
    ("O=c1[nH]c2ccc(Nc3ccnc4ccc(Br)cc34)cc2o1 [Compound 40]", "µM", 2.4),
    ("COc1cc(Nc2ccnc3ccc(Br)cc23)cc(OC)c1OC [Compound 1]", "µM", 53),
    ("Brc1ccc2nccc(Nc3cccc4nc[nH]c34)c2c1 [Compound 27]", "µM", 1.3),
]

Record for Cn1c(=O)[nH]c2cc(Nc3ccnc4ccc(Br)cc34)ccc21 [Compound 42] under target or system AAK1 (Homo sapiens): Ki reported as 4.1

For the compound COc1cc(Nc2ccnc3ccc(C(F)(F)F)cc23)cc(OC)c1OC [Compound 13] , the measured Ki on AAK1 (Homo sapiens) was 54

These data points were gathered from paper PMC6891286.
